The origin of these recorded values is patent US3991210A.

Experiment: Acute oral lethality (LD50) in mice
Settings: mouse, in vivo
measured.parameter: LD50 at 24 h

Request: Please list LD50 at 24 h recorded for the compound `Cc1ccc(S(=O)(=O)O)cc1.N=C(N)Cc1ccc(Br)cc1`
Result: 2610 mg/kg

###

Experiment: Acute oral lethality (LD50) in mice
Conditions: mouse, in vivo, mice, per os, 24 hours, read-out: LD50 (dosage lethal to 50 percent of the mice)
measured.parameter: LD50 at 24 h (mg/kg)
Write the answer as a number in mg/kg, unit excluded.

Request: Please list LD50 at 24 h recorded for the molecule `Cl.N=C(N)Cc1ccc(Br)cc1`
Result: 562
